Test: activity coefficient (dimensionless); of the first substance listed, at infinite dilution; xn = mol fraction of the nth substance listed
Settings: 368.15 K; 101 kPa; Liquid; Chromatography; x1 = 0
Hi! Could you tag entries with activity coefficient below 2 as fulfilled, and those at or above as not fulfilled? Much appreciated.

Below are worked cases with known answers.
INSERT INTO assay_data (molecule, assigned_class) VALUES
  ('C1CCCCCCC1 [cyclooctane] + CCCC[N+]1(C)CCCC1.N#C[B-](C#N)(C#N)C#N', 'not fulfilled'),
  ('CCc1ccccc1 [ethylbenzene] + CCCC[N+]1(C)CCCC1.N#C[B-](C#N)(C#N)C#N', 'fulfilled'),
  ('CC(C)OC(C)C [diisopropyl ether] + CCCC[N+]1(C)CCCC1.N#C[B-](C#N)(C#N)C#N', 'not fulfilled'),
  ('C=CCCCCCCCC [1-decene] + CCCC[N+]1(C)CCCC1.N#C[B-](C#N)(C#N)C#N', 'not fulfilled'),
  ('CO [methanol] + CCCC[N+]1(C)CCCC1.N#C[B-](C#N)(C#N)C#N', 'fulfilled');

Report whether reported activity coefficient is lower than 2 (strictly) for CCC(C)(C)C [2,2-dimethylbutane] + CCCC[N+]1(C)CCCC1.N#C[B-](C#N)(C#N)C#N
not fulfilled

Hello, the source for this data is the NIST ThermoML archive (doi:10.1016/j.jct.2011.06.007), in case you need it.
